test system: SK-MEL-2 melanoma; assay: NCI-60 one-dose screen, 48 h; conditions: 10 µM unless noted
About 83,000 compounds went through this panel and 20% of them were active in at least one assay; those are over-represented in the sample as a whole. Activity calls are given as the source filed them. Rule for the calls: active = growth percent below 10; inactive = the rest.
Entry note: the call must match one of yes (1) for active, no (0) for inactive

Observe how each entry below is paired with its result.
>>> print(df.to_string())
                                   molecule  class_assignment
0                  CCCCCCCCCCCCCCNCc1ccccc1            no (0)
1  Cc1ccnc(NC(c2ccccc2)c2ccc3cccnc3c2O)c1 (stereo not given)            no (0)

stdin: Check the results log: what was the call for CCCCCCCCCCCCCCCCOP(=O)([O-])OCC[N+](C)(C)C ?
stdout: no (0)

stdin: Look up the recorded call for COC(=O)c1nc(=S)[nH]c(C(=O)OC)c1C(=O)c1ccccn1 in this test.
stdout: no (0)

stdin: Identify the outcome logged in this assay for the molecule shown: CN=C(N)N/N=C(\C)c1ccc2c(c1)Cc1cc(/C(C)=N/NC(N)=NC)ccc1-2
stdout: yes (1)

stdin: # fetch the recorded call for COc1ccc(N=N/N=c2\sc3cc(OC)ccc3n2C)cc1 here
stdout: no (0)

Values were extracted from PubChem BioAssay (NCI).
